List of TGI values.
# Tested on: HOP-62 NSCLC
# measurementDescription: NCI tumour cell line growth inhibition, 48 h

// lookup TGI for `CCOC(=O)c1cc2cc(CSc3ccccc3)ccc2oc1=O`
> 100 µM

Entry to check: `CCOC(=O)c1ccc(Nc2nc3ccc(C(F)(F)F)cc3nc2-c2ccccc2)cc1`
> 100 µM

Entry to check: `CCc1oc2ccccc2c1C(=O)c1cc(Br)c(O)c(Br)c1`
85.7 µM

Entry to check: `Cc1nn2c(/C=C3/C(=O)Nc4ccc(Cl)cc43)c(-c3ccccc3)nc2s1`
3.99 µM

Entry to check: `CN(C)CCNC(=O)c1cc([N+](=O)[O-])ccn1`
> 100 µM

Further cases:
// lookup TGI for `CC1(C)N=C(N)N=C(N)N1c1ccc(CCCCc2ccc(Cl)cc2Cl)cc1`
10.6 µM

Entry to check: `COc1ccc2c(-c3ccc(O)cc3)c(Oc3ccccc3)c(=O)oc2c1`
> 100 µM

Entry to check: `COc1ccc(C(=O)c2cc(OC)c(OC)c(OC)c2)cc1O`
> 100 µM

Entry to check: Cn1c2c(c3ccccc31)CC(=O)N1CCCCC1C21OCCO1 (stereo unspecified)
> 100 µM

Entry to check: `c1cncc(C(Nc2cccc3cccnc23)Nc2cccc3cccnc23)c1`
> 100 µM

Entry to check: `O=C(Nc1ccc(Nc2ccncc2)cc1)c1ccc(Nc2ccnc3ccc([N+](=O)[O-])cc23)cc1`
> 100 µM
